For each entry below, report its negative dichroism S value.
assay: negative dichroism S in a liquid-crystalline mixture; assay type: physicochemical; conditions: liquid-crystalline mixture ZK-807
Give a plain numeric answer without units written out.

The reported value for CCCCc1cc(NC(=O)c2ccc(C3CCC(CCCC)CC3)cc2)c2c(c1O)C(=O)c1c(O)c(CCCC)cc(NC(=O)c3ccc(C4CCC(CCCC)CC4)cc3)c1C2=O (centres unmarked) in terms of negative dichroism S is -0.34

The reported value for CCCCCC1CCC(c2ccc(C(=O)Nc3ccc(OC(=O)c4ccc(C5CCC(CCCCC)CC5)cc4)c4c3C(=O)c3c(NC(=O)c5ccc(C6CCC(CCCCC)CC6)cc5)cc(C)c(OC(=O)c5ccc(C6CCC(CCCCC)CC6)cc5)c3C4=O)cc2)CC1 (centres unmarked) in terms of negative dichroism S is -0.36

The reported value for CCCCc1cc(NC(=O)c2ccc(C3CCC(CCCC)CC3)cc2)c2c(c1O)C(=O)c1c(OC(=O)CCC)c(CCCC)cc(NC(=O)c3ccc(C4CCC(CCCC)CC4)cc3)c1C2=O (centres unmarked) in terms of negative dichroism S is -0.36

The reported value for CCCCCC1CCC(c2ccc(C(=O)Nc3cc(CCCC)c(O)c4c3C(=O)c3c(NC(=O)c5ccc(C6CCC(CCCCC)CC6)cc5)cc(CCCC)c(OC(=O)C5CCC(CCCC)CC5)c3C4=O)cc2)CC1 (centres unmarked) in terms of negative dichroism S is -0.37

The reported value for CCCCCCC1CCC(C(=O)Nc2ccc(OC(=O)C3CCC(CCCCCC)CC3)c3c2C(=O)c2c(NC(=O)C4CCC(CCCCCC)CC4)cc(C)c(OC(=O)C4CCC(CCCCCC)CC4)c2C3=O)CC1 (centres unmarked) in terms of negative dichroism S is -0.37

* * *

For each entry below, report its Solubility (limiting) value.
test: limiting solubility in liquid-crystalline mixtures at 20° C.; type: physicochemical; details: ZK-807, 20° C.
Give the value, in units of mass %, as a plain number.

The reported value for CCCCCc1cc(NC(=O)c2ccc(CCCC)cc2)c2c(c1OC(=O)c1ccc(CCCC)cc1)C(=O)c1c(OC(=O)c3ccc(CCCC)cc3)c(CCCCC)cc(NC(=O)c3ccc(CCCC)cc3)c1C2=O in terms of Solubility (limiting) is 9.5

The reported value for CCCCCC1CCC(c2ccc(C(=O)Nc3cc(CCCC)c(O)c4c3C(=O)c3c(NC(=O)c5ccc(C6CCC(CCCCC)CC6)cc5)cc(CCCC)c(OC(=O)CCC)c3C4=O)cc2)CC1 (centres unmarked) in terms of Solubility (limiting) is 1.1

The reported value for CCCCCC1CCC(c2ccc(C(=O)Nc3ccc(O)c4c3C(=O)c3c(NC(=O)c5ccc(C6CCC(CCCCC)CC6)cc5)cc(CCCC)c(O)c3C4=O)cc2)CC1 (centres unmarked) in terms of Solubility (limiting) is 0.6

The reported value for CCCCCC1CCC(c2ccc(C(=O)Nc3cc(CCCC)c(OC(=O)CCC)c4c3C(=O)c3c(NC(=O)c5ccc(C6CCC(CCCCC)CC6)cc5)cc(CCCC)c(OC(=O)CCC)c3C4=O)cc2)CC1 (centres unmarked) in terms of Solubility (limiting) is 5.2

The reported value for CCCCc1ccc(C(=O)Nc2cc(CCCC)c(OC(=O)c3ccc(CCCC)cc3)c3c2C(=O)c2c(NC(=O)c4ccc(CCCC)cc4)cc(CCCC)c(OC(=O)c4ccc(CCCC)cc4)c2C3=O)cc1 in terms of Solubility (limiting) is 9.0

* * *

assay: limiting solubility in liquid-crystalline mixtures at 20° C.; assay type: physicochemical; conditions: ZK-807, 20° C.
Observed property: Solubility (limiting) (mass %)
Give the value, in units of mass %, as a plain number.

The reported value for CCCCC[C@H]1CC[C@H](c2ccc(C(=O)Nc3cc(CCCC)c(O)c4c3C(=O)c3c(NC(=O)c5ccc([C@H]6CC[C@H](CCCCC)CC6)cc5)cc(CCCC)c(O)c3C4=O)cc2)CC1 [Compound 29] in terms of Solubility (limiting) is 1.0

The reported value for CCCCC[C@H]1CC[C@H](c2ccc(C(=O)Nc3ccc(O)c4c3C(=O)c3c(NC(=O)c5ccc([C@H]6CC[C@H](CCCCC)CC6)cc5)cc(C)c(O)c3C4=O)cc2)CC1 [Compound 27] in terms of Solubility (limiting) is 1.0

The reported value for CCCCCC1CCC(c2ccc(C(=O)Nc3ccc(OC(=O)c4ccc(C5CCC(CCCCC)CC5)cc4)c4c3C(=O)c3c(NC(=O)c5ccc(C6CCC(CCCCC)CC6)cc5)cc(C)c(OC(=O)c5ccc(C6CCC(CCCCC)CC6)cc5)c3C4=O)cc2)CC1 (stereo not drawn) [Compound 4] in terms of Solubility (limiting) is 1.0

* * *

assay: limiting solubility in liquid-crystalline mixtures at 20° C.; type: physicochemical; conditions: ZLI-1840, 20° C.; Table 6, derivatives of SU 1089084
For each entry below, report its Solubility (limiting), known derivatives value.
Give the value, in units of mass %, as a plain number.

The reported value for CCCCc1ccc(C(=O)Nc2ccc(NC(=O)c3ccc(CCCC)cc3)c3c2C(=O)c2ccccc2C3=O)cc1 [No. 3, Table 6, reference compound] in terms of Solubility (limiting), known derivatives is 0.3

The reported value for CCCCCCCCc1ccc(-c2ccc(C(=O)Nc3ccc(NCCCC)c4c3C(=O)c3ccccc3C4=O)cc2)cc1 [No. 1, Table 6, reference compound] in terms of Solubility (limiting), known derivatives is 0.4

The reported value for CCCCCCc1ccc(C(=O)Nc2ccc(OC(=O)c3ccc(CCCCCC)cc3)c3c2C(=O)c2c(NC(=O)c4ccc(CCCCCC)cc4)ccc(OC(=O)c4ccc(CCCCCC)cc4)c2C3=O)cc1 [No. 5, Table 6, reference compound] in terms of Solubility (limiting), known derivatives is 0.1

* * *

assay: limiting solubility in liquid-crystalline mixtures at 20° C.; assay type: physicochemical; details: 3010, 20° C.
Observed property: Solubility (limiting) (mass %)
Give the value, in units of mass %, as a plain number.

The reported value for CCCCCC1CCC(c2ccc(C(=O)Nc3cc(CCCC)c(OC(=O)c4ccc(C5CCC(CCCCC)CC5)cc4)c4c3C(=O)c3c(NC(=O)c5ccc(C6CCC(CCCCC)CC6)cc5)cc(CCCC)c(OC(=O)c5ccc(C6CCC(CCCCC)CC6)cc5)c3C4=O)cc2)CC1 (stereo not shown) [Compound 8] in terms of Solubility (limiting) is 2.6

The reported value for CCCCCC1CCC(c2ccc(C(=O)Nc3cc(CCCC)c(O)c4c3C(=O)c3c(NC(=O)c5ccc(C6CCC(CCCCC)CC6)cc5)cc(CCCC)c(OC(=O)c5ccc(C6CCC(CCCCC)CC6)cc5)c3C4=O)cc2)CC1 (stereo not shown) [Compound 19] in terms of Solubility (limiting) is 4.8

The reported value for CCCCCC1CCC(c2ccc(C(=O)Nc3ccc(OC(=O)c4ccc(C5CCC(CCCCC)CC5)cc4)c4c3C(=O)c3c(NC(=O)c5ccc(C6CCC(CCCCC)CC6)cc5)cc(C)c(OC(=O)c5ccc(C6CCC(CCCCC)CC6)cc5)c3C4=O)cc2)CC1 (stereo not shown) [Compound 4] in terms of Solubility (limiting) is 3.0

The reported value for CCCCCC1CCC(c2ccc(C(=O)Nc3cc(CCCC)c(O)c4c3C(=O)c3c(OC(=O)c5ccc(C6CCC(CCCCC)CC6)cc5)c(CCCC)cc(NC(=O)c5ccc(C6CCC(CCCCC)CC6)cc5)c3C4=O)cc2)CC1 (stereo not shown) [Compound 24] in terms of Solubility (limiting) is 6.0

* * *

test: λmax of the long-wave absorption band of the dye; type: physicochemical; settings: Table 7; two values = two maxima
Observed property: λmax, known derivatives (nm)
Give the value, in units of nm, as a plain number.

The reported value for CCCCCC1CCC(c2ccc(C(=O)Nc3ccc(O)c4c3C(=O)c3c(NC(=O)c5ccc(C6CCC(CCCCC)CC6)cc5)ccc(OC(=O)c5ccc(C6CCC(CCCCC)CC6)cc5)c3C4=O)cc2)CC1 (stereo not shown) [No. 10, Table 6, reference compound] in terms of λmax, known derivatives is 554

The reported value for CCCCCCc1ccc(C(=O)Nc2ccc(NC(=O)c3ccc(CCCCCC)cc3)c3c2C(=O)c2ccccc2C3=O)cc1 [No. 4, Table 6, reference compound] in terms of λmax, known derivatives is 512

The reported value for CCCCc1ccc(C(=O)Nc2ccc(NC(=O)c3ccc(CCCC)cc3)c3c2C(=O)c2ccccc2C3=O)cc1 [No. 3, Table 6, reference compound] in terms of λmax, known derivatives is 508

The reported value for CCCCc1ccc(C(=O)Nc2ccc(OC(=O)c3ccc(CCCC)cc3)c3c2C(=O)c2c(NC(=O)c4ccc(CCCC)cc4)ccc(OC(=O)c4ccc(CCCC)cc4)c2C3=O)cc1 [No. 6, Table 6, reference compound] in terms of λmax, known derivatives is 470

All values here come from patent US4933104A.
